- experimental-protocol: Plasma pharmacokinetics in patients
- particulars: human, plasma, oral, 55 mg, AUC0–24, Mean (SD), QID/M-7D 55 mg, Day 7, Dose 2, steady state, n=3
assay-readout: AUC(0-t)

Value of AUC(0-t) reported for the molecule "O=C(O)c1ccc(Nc2ncc3c(n2)-c2ccc(Cl)cc2C(c2c(F)cccc2F)=NC3)cc1" is 10.7 µM·h

---

- experimental-protocol: Plasma pharmacokinetics in patients
- particulars: human, plasma, oral, 45 mg, AUC0–24, Mean (SD), QID-7D 45 mg, Day 7, Dose 2, steady state, n=3
assay-readout: AUC(0-t) (µM·h)
The response must be a number in µM·h with no trailing unit.

Value of AUC(0-t) reported for the molecule O=C(O)c1ccc(Nc2ncc3c(n2)-c2ccc(Cl)cc2C(c2c(F)cccc2F)=NC3)cc1 [MLN8054] is 7.55

---

- experimental-protocol: Plasma pharmacokinetics in patients
- particulars: human, plasma, oral, 5 mg, Tmax, Mean (SD), QD-7D 5 mg, Day 7, steady state, n=4
assay-readout: Tmax (h)
The response must be a number in h with no trailing unit.

Value of Tmax reported for the compound "O=C(O)c1ccc(Nc2ncc3c(n2)-c2ccc(Cl)cc2C(c2c(F)cccc2F)=NC3)cc1" is 1.7

---

- experimental-protocol: Plasma pharmacokinetics in patients
- particulars: human, plasma, oral, 45 mg, Cmax, Mean (SD), QID-7D 45 mg, Day 7, Dose 2, steady state, n=3
assay-readout: Cmax (nM)
The response must be a number in nM with no trailing unit.

Value of Cmax reported for the compound O=C(O)c1ccc(Nc2ncc3c(n2)-c2ccc(Cl)cc2C(c2c(F)cccc2F)=NC3)cc1 [MLN8054] is 1530

---

- experimental-protocol: Plasma pharmacokinetics in patients
- particulars: human, plasma, oral, 25 mg, Tmax, Mean (SD), QID-7D 25 mg, Day 7, Dose 2, steady state, n=6
assay-readout: Tmax
Write the numeric value and append its unit.

Value of Tmax reported for the molecule "O=C(O)c1ccc(Nc2ncc3c(n2)-c2ccc(Cl)cc2C(c2c(F)cccc2F)=NC3)cc1" is 2.5 h

---

- experimental-protocol: Plasma pharmacokinetics in patients
- particulars: human, plasma, oral, 45 mg, Tmax, Mean (SD), QID-7D 45 mg, Day 7, Dose 2, steady state, n=3
assay-readout: Tmax (min)
The response must be a number in min with no trailing unit.

Value of Tmax reported for the compound "O=C(O)c1ccc(Nc2ncc3c(n2)-c2ccc(Cl)cc2C(c2c(F)cccc2F)=NC3)cc1" is 48

---

- experimental-protocol: Plasma pharmacokinetics in patients
- particulars: human, plasma, oral, 80 mg, Tmax, Mean (SD), QID/M-7D 80 mg, Day 7, Dose 2, steady state, n=3
assay-readout: Tmax
Write the numeric value and append its unit.

Value of Tmax reported for the compound "O=C(O)c1ccc(Nc2ncc3c(n2)-c2ccc(Cl)cc2C(c2c(F)cccc2F)=NC3)cc1" is 1 h

---

- experimental-protocol: Plasma pharmacokinetics in patients
- particulars: human, plasma, oral, 20 mg, AUC0–24, Mean (SD), QD-7D 20 mg, Day 7, steady state, n=3
assay-readout: AUC(0-t) (µM·h)
The response must be a number in µM·h with no trailing unit.

Value of AUC(0-t) reported for the molecule "O=C(O)c1ccc(Nc2ncc3c(n2)-c2ccc(Cl)cc2C(c2c(F)cccc2F)=NC3)cc1" is 13.5
